experiment_notes: yeast display, Sf9 membrane polyspecificity reagent, FACS + sequencing; frameworks hold sequencing errors

- residue_sequence: "QVQLVESGGGLDQAGGSLRLSCAASGSISAIYTMGWYRQAPGKERELVAAISSGDSTNYADSVKGRFTISRDNAKNTVYLQMNSLKPEDTAVYYCATERSHLATGQGYYYVQTFYYWGQGTEVTVSS"
  polyreactivity (PSR sort gate): "low polyreactivity"
- residue_sequence: "QVQLVESGGGLVQAGGSLRLSCAASGFTFSKYAMGWYRQAPGKERELVASIDDGGSTNYADSVKGRFTISRDNAKNTVYLQKNSLKPEDTAVYYCNASYPTGYWYYVIVQYDYWGQGTQVTVSS"
  polyreactivity (PSR sort gate): "low polyreactivity"
- residue_sequence: "QVQLVESGGGLLQAGGSLRLSCAASGFIFRGYNMGWYRQAPGKERELVAAITTTSSTYYADSVKGRFTISRDNAKNTVYLQMNSLKPEDTAVYYCAALFYRYGYLYNYWGQGTQVTVSS"
  polyreactivity (PSR sort gate): "high polyreactivity"
- residue_sequence: "QVQLVESGGGLVQAGGSLRLSCAASGRILGVNAMGGYRQAPGKERELVAAINFSGGGTYYADSVKGRFTISRDNAKNTVYLQMNSLKPEDTAVYYCAAGYVTTWFRYDYWGWGQGTQVTVSS"
  polyreactivity (PSR sort gate): "low polyreactivity"
- residue_sequence: "QVQLVESGGGLVQGGGSLGLSCAASGRIFPVNAMGWYRQAPGKERELVAAISTTGARTYYADSVKGRFTISRDNAKNTVYLQMNSLKPEDTAVYYCAAKQFSVTLSNYWGQGTQVTVSS"
  polyreactivity (PSR sort gate): "low polyreactivity"
- residue_sequence: "QVQLVESGGGLVQAGGSLRLSCAASGSIFPIYAMGWYRQAPGKERELVAAIDSSGGSTYYADSVKGRFTISRDNAKNTVYLQMNSLKPEDTAVYYCAADFGSKSTPYDYWGQGTQVTVSS"
  polyreactivity (PSR sort gate): "low polyreactivity"
- residue_sequence: "QVQLVESGGGLVQARGSLRLSCAASGSTFGGYAMGWYRKAPGKERELVASISAIGGSTYYADSVKGRFTISRDNAKNTFYLQMNSMKPEDTAVYYCAAQRGGGPNDYWGQGTQVTVSS"
  polyreactivity (PSR sort gate): "high polyreactivity"
- residue_sequence: "QVQLVESGGGLVQAGGSLRLSCAASGITFYLYTMGWYRQAPGKERELVAAISWRGGGTYYADSVKGRFTISRDNAKNTVYLQMNSLKPEDTAVYYCATVRTYARNDYWGQGTQVTVSS"
  polyreactivity (PSR sort gate): "high polyreactivity"
- residue_sequence: "QVQLVESGGGLVQAGGSLRLSCAASGFIFSRNAMGWYRQAPGKERELVAAITRGGITYYADSVKGRFTISRDNAKNTVYLQMNSLKPEDTAVYYCAAYRTYQAYTGSHYYYWGQGTQVTVSS"
  polyreactivity (PSR sort gate): "high polyreactivity"
- residue_sequence: "QVQLVESGGGLVQAGGSLRLSCAASGFIFHLYSLGWYRQAPGKERELVAVISGGGSTYYADSVKGRFTISRDNAKNTVYLQMNSLKPEDTAVYYCNVGRYYRYATGGDYWGQGTQVTVSS"
  polyreactivity (PSR sort gate): "high polyreactivity"
- residue_sequence: "QVQLVESGGGLVQAGGSHRLSCAASGSIFYDNAMGWYRQAPGKERELVAVITVSGDSTYYADSVKGRFTISRDNAKNTVYLQMNSLKPEDTAVYYCNTDAISGSHFWRYITFGYLDDYWGQGTQVTVSS"
  polyreactivity (PSR sort gate): "low polyreactivity"
- residue_sequence: "QVQLVESGGGLVQAGGSLRLSCAASGHIFPTNPMGWYRQAPGKERQLVAVISESVGSTYYADSVKGRFTISRDNAKNTVYLQMNSLKPEDTAVYFCAKQSRYPSLDADYDYWGQGTQVTVSS"
  polyreactivity (PSR sort gate): "low polyreactivity"
- residue_sequence: "QVQLVESGGGLVQAGGSLRLSCAASGRTFNSHVMRWYRQAPGKERELVAAISSRGGGTYYADSVKGRFTISRDNAKNTVYLQMNSLNPEDTAVYYCITVVSRSYRDGPPDPYDSWGQGTQVTVSS"
  polyreactivity (PSR sort gate): "high polyreactivity"
- residue_sequence: "QVQLVESGGGLVQAGGSLRLSCAASGSIFTYYAMGWYRQAPGKEMELVARIDWNGGSTRYADSVKGRFTISRDNAKNTVYLQMNSLKPEYTAVYYCAADWDYAPYFDPDLLDYWGQGTQVTVSS"
  polyreactivity (PSR sort gate): "low polyreactivity"
- residue_sequence: "QVQLVESGGGLVQAGGSLRLSCAASGSYLRYYAMGWYRPARGKERELVAAISRSGTNTYYAHSVKGRFTISRDNAKNTVYLQMNSLKPEDTAVYYCAARGYYRDYDSWGQGTQVTVSS"
  polyreactivity (PSR sort gate): "high polyreactivity"
- residue_sequence: "QVQLVESGGGLVQAGGSLSLSCAASGSILAVYTMGWYRQAPGTVRELVAAITVSSGRTYYADSVKGRFTISRDNAKNTVYLQMNSLKPEDTSVYYCAALYWRSKLRPYEYWGQGTQVTVSS"
  polyreactivity (PSR sort gate): "high polyreactivity"
- residue_sequence: "QVHLVESGGGLVQAGGSLRLSCAASGFIFDKYAMGWYRQAPGKERELVAAITDTGGNTYYADSVKGRFTISRDNAKNTVYLQMNSLKPEDTAVYYCNADYNDYQTYSATTYEYWGQGTQVTVSS"
  polyreactivity (PSR sort gate): "low polyreactivity"
- residue_sequence: "QVQHVESRGGLVQAGGSLRLSCAASGLILSGYTMGWYRQAPGKERELVAAISRSGGSTYYADSVKGRFTISRDNAKNTVYLQMNSLKPEDTAVYYCAKVPIYRYGVWAMNYWGQGTLVTVSS"
  polyreactivity (PSR sort gate): "high polyreactivity"
- residue_sequence: "QVQHVESGGGLVQAGGSLRLSCAASGRIFTYYTMGWYRPAPGKEREFVAAISWSGTSTYYADSVKGRFRISRDNAKNTVYLQMKSLKPEDTAVYSCAARNWYSRYDYWGQGTQVTVSS"
  polyreactivity (PSR sort gate): "high polyreactivity"
- residue_sequence: "QVQLVESGGGLVQAGGSLRISCAASGLTFQYNAMGWYRQAPGKERELVAAISSSGGSTYYADSVKGRFTISRDNAKNTVYLQMNSLKPEDTAVYYCNAYSQSWNFYGDGDYWVQGTQVTVSS"
  polyreactivity (PSR sort gate): "low polyreactivity"
- residue_sequence: "QVQLVESGGGLVQAGGSLRLSCAASGLTSWYYAMGWYRQAPGKERELVAAITSGGSTYYADSVKGRFTISRDNAKNTVYLQMNSLKPEDTAVYYCAKKKRSYYYYPYDYWGQGTQVTVSS"
  polyreactivity (PSR sort gate): "high polyreactivity"
